For each record, write down the corresponding Ki.
# Protocol notes: Inhibition of protein interaction between C-terminal 6x-histidine tagged full-length beta-catenin (1 to 781 residues) (unknown origin)/N-terminal biotinylated human E-cadherin (824 to 877 residues) incubated for 1 hr by Alpha-screen competitive inhibition assay

Given the compound `Cl.Cl.O=C(Nc1ccc(O[C@@H]2CCNC2)c(-c2cccc(-c3nn[nH]n3)c2)c1)c1ccc(O[C@H]2CCNC2)c(-c2ccc3ccsc3c2)c1` , what is its reported Ki? > 915 µM

Given the compound `Cl.Cl.O=C(Nc1ccc(O[C@@H]2CCNC2)c(-c2cccc(-c3nn[nH]n3)c2)c1)c1ccc(O[C@H]2CCNC2)c(-c2ccc(F)c(F)c2)c1` , what is its reported Ki? > 915 µM

* * *

# Test system: A549
# Protocol notes: Cytotoxicity in human A549 cells assessed as reduction in cell viability incubated for 72 hrs by MTS assay
# Type: functional, cell-based
# Run parameters: A549, 72 h
Simple rule here: IC50 less than 4 µM is 1, otherwise 0.

Hello, I'm reviewing records and need to know if IC50 of `Cl.Cl.O=C(Nc1ccc(O[C@H]2CCNC2)c(-c2ccc(F)cc2)c1)c1ccc(O[C@H]2CCNC2)c(-c2ccc3cc(F)ccc3c2)c1` is below 4 µM. Could you check? 1

Hello, I'm reviewing records and need to know if IC50 of `Cl.Cl.O=C(Nc1ccc(O[C@H]2CCNC2)c(-c2cccc(-c3nn[nH]n3)c2)c1)c1ccc(O[C@H]2CCNC2)c(-c2ccc(F)c(F)c2)c1` is below 4 µM. Could you check? 0

Hello, I'm reviewing records and need to know if IC50 of `Cc1ccccc1-c1cc(NC(=O)c2ccc(O[C@H]3CCNC3)c(-c3ccc(F)c(F)c3)c2)ccc1O[C@H]1CCNC1.Cl.Cl` is below 4 µM. Could you check? 0

Hello, I'm reviewing records and need to know if IC50 of `Cl.Cl.O=C(Nc1ccc(O[C@@H]2CCNC2)c(-c2cccc(-c3nn[nH]n3)c2)c1)c1ccc(O[C@H]2CCNC2)c(-c2ccc(F)c(F)c2)c1` is below 4 µM. Could you check? 0

Hello, I'm reviewing records and need to know if IC50 of `Cc1cccc(-c2cc(NC(=O)c3ccc(O[C@H]4CCNC4)c(-c4ccc(F)c(F)c4)c3)ccc2O[C@H]2CCNC2)c1.Cl.Cl` is below 4 µM. Could you check? 0

Hello, I'm reviewing records and need to know if IC50 of `Cl.Cl.O=C(Nc1ccc(O[C@H]2CCNC2)c(-c2ccc(F)cc2)c1)c1cnc(O[C@H]2CCNC2)c(-c2ccc(F)c(F)c2)c1` is below 4 µM. Could you check? 0

Hello, I'm reviewing records and need to know if IC50 of `Cl.Cl.O=C(Nc1ccc(O[C@H]2CCNC2)c(-c2ccc(F)cc2)c1)c1ccc(O[C@H]2CCNC2)c(C2CCCCC2)c1` is below 4 µM. Could you check? 1

* * *

# System: HCT-116
# Protocol notes: Cytotoxicity in human HCT-116 cells assessed as reduction in cell viability incubated for 72 hrs by MTS assay
# Type: functional, cell-based
# Run parameters: HCT-116, 72 h
Endpoint label: IC50

Given the compound `Cl.Cl.O=C(Nc1ccc(O[C@H]2CCNC2)c(-c2ccc(F)cc2)c1)c1cnc(O[C@H]2CCNC2)c(-c2ccc(F)c(F)c2)c1` , what is its reported IC50? 8.7 µM

Given the compound Cl.Cl.O=C(Nc1ccc(O[C@H]2CCNC2)c(-c2ccc(F)cc2)c1)c1ccc(O[C@H]2CCNC2)c(C2CCC(C(F)(F)F)CC2)c1 (some centres not stated) , what is its reported IC50? 5.6 µM

Given the compound `Cc1cccc(-c2cc(NC(=O)c3ccc(O[C@H]4CCNC4)c(-c4ccc(F)c(F)c4)c3)ccc2O[C@H]2CCNC2)c1.Cl.Cl` , what is its reported IC50? 1.4 µM

Given the compound `Cl.Cl.O=C(O)c1ccc(-c2cc(NC(=O)c3ccc(O[C@H]4CCNC4)c(-c4ccc(F)c(F)c4)c3)ccc2O[C@H]2CCNC2)cc1` , what is its reported IC50? > 400 µM

Given the compound `Cl.Cl.O=C(Nc1ccc(O[C@H]2CCNC2)c(-c2ccc(F)cc2)c1)c1ccc(O[C@H]2CCNC2)c(C2=CCCCC2)c1` , what is its reported IC50? 6.9 µM

Given the compound `Cl.Cl.O=C(Nc1ccc(O[C@H]2CCNC2)c(-c2ccc(F)cc2)c1)c1ccc(O[C@H]2CCNC2)c(-c2ccc3ccsc3c2)c1` , what is its reported IC50? 7.5 µM

Given the compound `Cl.Cl.O=C(Nc1ccc(O[C@H]2CCNC2)c(-c2ccc(F)cc2)c1)c1ccc(O[C@H]2CCNC2)c(C2CCCCC2)c1` , what is its reported IC50? 3.8 µM

Given the compound `Cl.Cl.O=C(Nc1ccc(O[C@@H]2CCNC2)c(-c2cccc(-c3nn[nH]n3)c2)c1)c1ccc(O[C@H]2CCNC2)c(-c2ccc(F)c(F)c2)c1` , what is its reported IC50? 55 µM

Given the compound `Cl.Cl.O=C(O)c1cccc(-c2cc(NC(=O)c3ccc(O[C@H]4CCNC4)c(-c4ccc(F)c(F)c4)c3)ccc2O[C@H]2CCNC2)c1` , what is its reported IC50? > 400 µM

Given the compound `Cl.Cl.Fc1ccc(-c2cc(-c3ccc4cc(O[C@H]5CCNC5)c(-c5ccc(F)c(F)c5)cc4n3)ccc2O[C@H]2CCNC2)cc1` , what is its reported IC50? 9.6 µM

Given the compound `Cc1ccccc1-c1cc(NC(=O)c2ccc(O[C@H]3CCNC3)c(-c3ccc(F)c(F)c3)c2)ccc1O[C@H]1CCNC1.Cl.Cl` , what is its reported IC50? 5.7 µM

Given the compound `Cl.Cl.O=C(O)c1ccc(F)c(-c2cc(NC(=O)c3ccc(O[C@H]4CCNC4)c(-c4ccc(F)c(F)c4)c3)ccc2O[C@H]2CCNC2)c1` , what is its reported IC50? > 400 µM

Given the compound `Cl.Cl.O=C(Nc1ccc(O[C@H]2CCNC2)c(-c2ccc(F)cc2)c1)c1ccc(O[C@H]2CCNC2)c(-c2ccc3cc(F)ccc3c2)c1` , what is its reported IC50? 5.6 µM

Given the compound `Cc1cc(F)ccc1-c1cc(NC(=O)c2ccc(O[C@H]3CCNC3)c(-c3ccc(F)c(F)c3)c2)ccc1O[C@H]1CCNC1.Cl.Cl` , what is its reported IC50? 5.6 µM

Given the compound `Cl.Cl.O=C(Nc1ccc(O[C@H]2CCNC2)c(-c2cccc(-c3nn[nH]n3)c2)c1)c1ccc(O[C@H]2CCNC2)c(-c2ccc(F)c(F)c2)c1` , what is its reported IC50? 190 µM

Given the compound `Fc1ccc(-c2cc(-c3cnc4cc(O[C@H]5CCNC5)c(-c5ccc(F)c(F)c5)cc4c3)ccc2O[C@H]2CCNC2)cc1` , what is its reported IC50? 2.2 µM

Given the compound `Cl.Cl.O=C(Nc1ccc(O[C@@H]2CCNC2)c(-c2cccc(-c3nn[nH]n3)c2)c1)c1ccc(O[C@H]2CCNC2)c(-c2ccc3ccsc3c2)c1` , what is its reported IC50? 240 µM

* * *

For each record, write down the corresponding pIC50.
# System under test: beta-catenin-B-cell lymphoma 9 protein complex (Homo sapiens, UniProt P35222)
# Sequence (P35222 whole entry): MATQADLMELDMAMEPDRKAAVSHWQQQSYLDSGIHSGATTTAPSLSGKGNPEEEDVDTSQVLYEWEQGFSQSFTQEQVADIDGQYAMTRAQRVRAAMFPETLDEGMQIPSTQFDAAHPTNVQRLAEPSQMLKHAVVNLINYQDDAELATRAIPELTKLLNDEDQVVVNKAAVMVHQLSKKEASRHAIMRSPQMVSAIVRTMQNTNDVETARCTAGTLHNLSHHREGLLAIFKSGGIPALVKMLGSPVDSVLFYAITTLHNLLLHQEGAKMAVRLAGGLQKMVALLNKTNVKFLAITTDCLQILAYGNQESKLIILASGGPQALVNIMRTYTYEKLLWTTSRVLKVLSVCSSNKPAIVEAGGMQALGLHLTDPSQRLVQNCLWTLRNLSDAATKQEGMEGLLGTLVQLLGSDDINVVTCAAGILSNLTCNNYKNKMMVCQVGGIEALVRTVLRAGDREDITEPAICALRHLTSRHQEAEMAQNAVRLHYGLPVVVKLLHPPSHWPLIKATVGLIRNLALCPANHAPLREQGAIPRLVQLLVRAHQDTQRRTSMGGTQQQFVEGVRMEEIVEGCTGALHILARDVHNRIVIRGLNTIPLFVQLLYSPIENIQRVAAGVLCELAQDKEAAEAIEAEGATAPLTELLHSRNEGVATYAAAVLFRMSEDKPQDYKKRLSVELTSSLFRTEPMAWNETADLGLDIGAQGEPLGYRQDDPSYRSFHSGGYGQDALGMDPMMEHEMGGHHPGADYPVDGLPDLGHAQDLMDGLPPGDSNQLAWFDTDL
# Sequence (O00512 whole entry, further chain): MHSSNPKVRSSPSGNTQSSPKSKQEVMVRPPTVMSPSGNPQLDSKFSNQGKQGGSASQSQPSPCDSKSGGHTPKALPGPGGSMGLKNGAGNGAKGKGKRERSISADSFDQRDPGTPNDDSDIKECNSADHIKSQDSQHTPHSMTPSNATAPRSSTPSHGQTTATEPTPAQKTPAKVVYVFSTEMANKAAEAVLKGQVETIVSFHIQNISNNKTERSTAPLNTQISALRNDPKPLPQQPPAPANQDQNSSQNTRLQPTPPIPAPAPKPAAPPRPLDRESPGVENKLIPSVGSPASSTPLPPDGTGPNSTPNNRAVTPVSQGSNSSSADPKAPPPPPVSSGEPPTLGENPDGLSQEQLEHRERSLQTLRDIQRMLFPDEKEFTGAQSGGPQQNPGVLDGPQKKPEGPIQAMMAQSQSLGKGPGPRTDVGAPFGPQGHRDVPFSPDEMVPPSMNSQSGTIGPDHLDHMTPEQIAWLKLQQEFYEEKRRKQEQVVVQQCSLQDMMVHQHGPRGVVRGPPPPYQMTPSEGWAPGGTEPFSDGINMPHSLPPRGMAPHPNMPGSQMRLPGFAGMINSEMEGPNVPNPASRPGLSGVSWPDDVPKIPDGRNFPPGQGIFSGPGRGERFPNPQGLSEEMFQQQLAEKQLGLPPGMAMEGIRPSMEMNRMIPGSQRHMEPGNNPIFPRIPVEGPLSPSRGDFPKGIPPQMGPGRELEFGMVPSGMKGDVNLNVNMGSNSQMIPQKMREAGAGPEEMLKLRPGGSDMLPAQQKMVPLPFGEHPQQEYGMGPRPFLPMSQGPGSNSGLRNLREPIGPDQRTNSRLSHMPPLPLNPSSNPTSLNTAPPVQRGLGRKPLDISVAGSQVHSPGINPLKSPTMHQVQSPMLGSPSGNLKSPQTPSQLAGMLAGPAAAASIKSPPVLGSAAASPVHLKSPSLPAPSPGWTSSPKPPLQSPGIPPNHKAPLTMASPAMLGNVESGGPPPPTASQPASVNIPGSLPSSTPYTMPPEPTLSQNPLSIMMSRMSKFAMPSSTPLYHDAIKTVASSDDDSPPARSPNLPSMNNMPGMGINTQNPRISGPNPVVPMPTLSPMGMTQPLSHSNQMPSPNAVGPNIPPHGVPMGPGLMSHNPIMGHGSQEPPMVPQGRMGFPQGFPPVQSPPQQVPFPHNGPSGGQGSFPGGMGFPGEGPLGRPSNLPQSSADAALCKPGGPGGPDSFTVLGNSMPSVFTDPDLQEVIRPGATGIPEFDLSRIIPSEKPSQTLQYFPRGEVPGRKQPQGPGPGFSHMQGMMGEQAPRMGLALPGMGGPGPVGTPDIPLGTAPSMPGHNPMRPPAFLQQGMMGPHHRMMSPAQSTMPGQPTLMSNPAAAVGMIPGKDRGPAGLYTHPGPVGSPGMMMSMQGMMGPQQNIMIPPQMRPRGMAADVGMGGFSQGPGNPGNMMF
# Protocol notes: Inhibition of protein interaction between beta-catenin (unknown origin)/BCL9 in human SW480 cells transfected with beta-catenin assessed as reduction in Wnt/beta-catenin transactivation incubated for 24 hrs by Wnt-responsive TOP-Flash luciferase reporter assay
# Format: cell-based
pIC50 is a log-scale quantity: -log10 of the concentration expressed in molar.

Given the compound `Cl.Cl.O=C(Nc1ccc(O[C@H]2CCNC2)c(-c2ccc(F)cc2)c1)c1ccc(O[C@H]2CCNC2)c(C2=CCCCC2)c1` , what is its reported pIC50? 5.06

Given the compound `Cl.Cl.O=C(O)c1cccc(-c2cc(NC(=O)c3ccc(O[C@H]4CCNC4)c(-c4ccc(F)c(F)c4)c3)ccc2O[C@H]2CCNC2)c1` , what is its reported pIC50? 3.43

Given the compound `Fc1ccc(-c2cc(-c3cnc4cc(O[C@H]5CCNC5)c(-c5ccc(F)c(F)c5)cc4c3)ccc2O[C@H]2CCNC2)cc1` , what is its reported pIC50? 5.10

Given the compound `Cl.Cl.Fc1ccc(-c2cc(-c3ccc4cc(O[C@H]5CCNC5)c(-c5ccc(F)c(F)c5)cc4n3)ccc2O[C@H]2CCNC2)cc1` , what is its reported pIC50? 4.92

Given the compound `Cl.Cl.O=C(Nc1ccc(O[C@H]2CCNC2)c(-c2ccc(F)cc2)c1)c1ccc(O[C@H]2CCNC2)c(-c2ccc(F)c(F)c2)c1` , what is its reported pIC50? 5.54

Given the compound Cl.Cl.O=C(Nc1ccc(O[C@H]2CCNC2)c(-c2ccc(F)cc2)c1)c1ccc(O[C@H]2CCNC2)c(C2CCC(C(F)(F)F)CC2)c1 (some centres not stated) , what is its reported pIC50? 5.00

Given the compound `Cc1cc(F)ccc1-c1cc(NC(=O)c2ccc(O[C@H]3CCNC3)c(-c3ccc(F)c(F)c3)c2)ccc1O[C@H]1CCNC1.Cl.Cl` , what is its reported pIC50? 5.70

Given the compound `Cc1ccccc1-c1cc(NC(=O)c2ccc(O[C@H]3CCNC3)c(-c3ccc(F)c(F)c3)c2)ccc1O[C@H]1CCNC1.Cl.Cl` , what is its reported pIC50? 5.28

Given the compound `Cl.Cl.O=C(O)c1ccc(-c2cc(NC(=O)c3ccc(O[C@H]4CCNC4)c(-c4ccc(F)c(F)c4)c3)ccc2O[C@H]2CCNC2)cc1` , what is its reported pIC50? 3.41

Given the compound `Cl.Cl.O=C(Nc1ccc(O[C@@H]2CCNC2)c(-c2cccc(-c3nn[nH]n3)c2)c1)c1ccc(O[C@H]2CCNC2)c(-c2ccc(F)c(F)c2)c1` , what is its reported pIC50? 4.60

Given the compound `Cl.Cl.O=C(Nc1ccc(O[C@H]2CCNC2)c(-c2ccc(F)cc2)c1)c1ccc(O[C@H]2CCNC2)c(-c2ccc3ccsc3c2)c1` , what is its reported pIC50? 5.92

Given the compound `Cl.Cl.O=C(Nc1ccc(O[C@H]2CCNC2)c(-c2ccc(F)cc2)c1)c1cnc(O[C@H]2CCNC2)c(-c2ccc(F)c(F)c2)c1` , what is its reported pIC50? 5.23

Given the compound `Cl.Cl.O=C(Nc1cnc(O[C@H]2CCNC2)c(-c2ccc(F)cc2)c1)c1ccc(O[C@H]2CCNC2)c(-c2ccc(F)c(F)c2)c1` , what is its reported pIC50? 5.11

Given the compound `Cl.Cl.O=C(Nc1ccc(O[C@H]2CCNC2)c(-c2ccc(F)cc2)c1)c1ccc(O[C@H]2CCNC2)c(-c2ccc3cc(F)ccc3c2)c1` , what is its reported pIC50? 4.92

Given the compound `Cl.Cl.O=C(Nc1ccc(O[C@@H]2CCNC2)c(-c2cccc(-c3nn[nH]n3)c2)c1)c1ccc(O[C@H]2CCNC2)c(-c2ccc3ccsc3c2)c1` , what is its reported pIC50? 4.37

Origin of values: ChEMBL document CHEMBL4680104
